Origin of the recorded values: PubChem BioAssay AID485346

system-tested: Protein Mdm4 (Homo sapiens) + E3 ubiquitin-protein ligase Mdm2 (Homo sapiens) (UniProt O15151+Q00987)
Sequence (O15151 whole entry, looked up): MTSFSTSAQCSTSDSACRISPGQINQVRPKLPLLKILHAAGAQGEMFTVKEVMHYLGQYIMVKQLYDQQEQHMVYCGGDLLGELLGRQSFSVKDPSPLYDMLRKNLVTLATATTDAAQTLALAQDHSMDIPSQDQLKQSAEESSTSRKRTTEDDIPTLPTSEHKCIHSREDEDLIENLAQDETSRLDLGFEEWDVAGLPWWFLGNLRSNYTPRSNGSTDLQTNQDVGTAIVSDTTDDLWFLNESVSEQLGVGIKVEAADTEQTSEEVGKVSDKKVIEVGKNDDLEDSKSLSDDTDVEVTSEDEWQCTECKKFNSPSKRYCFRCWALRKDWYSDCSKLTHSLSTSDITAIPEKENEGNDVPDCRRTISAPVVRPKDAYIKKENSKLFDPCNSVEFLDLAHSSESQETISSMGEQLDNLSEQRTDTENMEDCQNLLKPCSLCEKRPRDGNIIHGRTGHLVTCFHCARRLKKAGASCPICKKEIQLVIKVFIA
Sequence (Q00987 whole entry, looked up): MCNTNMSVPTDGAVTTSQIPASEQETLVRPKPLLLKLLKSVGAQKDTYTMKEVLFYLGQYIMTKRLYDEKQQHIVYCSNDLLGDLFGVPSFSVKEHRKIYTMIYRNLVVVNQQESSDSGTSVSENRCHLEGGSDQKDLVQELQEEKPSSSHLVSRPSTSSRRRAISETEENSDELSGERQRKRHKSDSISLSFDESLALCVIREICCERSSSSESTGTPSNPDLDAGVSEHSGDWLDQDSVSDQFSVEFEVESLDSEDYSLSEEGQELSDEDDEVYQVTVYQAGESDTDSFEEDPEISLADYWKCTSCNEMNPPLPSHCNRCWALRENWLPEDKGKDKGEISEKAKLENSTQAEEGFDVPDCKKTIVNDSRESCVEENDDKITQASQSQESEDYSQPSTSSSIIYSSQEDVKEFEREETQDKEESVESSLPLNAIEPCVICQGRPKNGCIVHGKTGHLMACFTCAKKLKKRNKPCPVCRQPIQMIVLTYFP
assay-explanation: inhibitors of human Mdm2-MdmX association, primary screen, cell-based, luminescence, split luciferase, SaOS-2, uHTS (AID 485346)
experimental-setup: SaOS-2 split-luciferase Mdm2/MdmX complementation, at 8 µM, active compounds read high
Screen size: about 330,000 compounds; about 10,000 (3%) were called active. What follows is part of a selection rich in actives, with near analogues and random picks from the rest.
Rule: inhibition under 10% gives not met, otherwise met.

# count of solved cases: 5
molecule	discrete-label
C=CC[C@@H](CC(=O)N[C@H](CO)Cc1ccccc1)C(=O)N[C@@H](COC(=O)[C@@H](CC=C)Cc1ccc(F)cc1)Cc1c[nH]c2ccccc12	met
COC(=O)CN1C(=O)[C@H]2[C@@H](/C=C/c3ccccc3)N3C(=O)CN(CC4CC4)C(=O)[C@@]3(Cc3ccccc3)[C@H]2C1=O	not met
O=C1NC(c2ccccc2)Oc2ccccc21 (stereo unspecified)	met
CC1CCN(C(=O)CCc2nnc3ccc(NCc4ccco4)nn23)CC1	met
Cc1ccc(C(=O)NNC(=O)c2cc3cc4ccccc4nc3s2)cc1	met

Exercise: Could you verify whether the entry `Cc1ccc(S(=O)(=O)Nc2ccc(F)c(S(=O)(=O)N3CCOCC3)c2)cc1` shows inhibition of no less than 10%?
Solution: met

====

For each of the compounds below, state its inhibition.
system-tested: Protein Mdm4 (Homo sapiens) + E3 ubiquitin-protein ligase Mdm2 (Homo sapiens) (UniProt O15151+Q00987)
assay-explanation: inhibitors of human Mdm2-MdmX association, primary screen, cell-based, luminescence, split luciferase, SaOS-2, uHTS (AID 485346)
experimental-setup: SaOS-2 split-luciferase Mdm2/MdmX complementation, at 8 µM, active compounds read high
Hit rate of the full screen: of about 330,000 compounds, about 10,000 (3%) were called active. Many of the other results were omitted from the sample, so actives are more common in it than they were.
Numbers only, in %.

I need inhibition for every entry listed below, if you could help.
1. CC1CCCN(CC(O)COCc2ccccc2)C1 (stereo not given)
2. Oc1ccc(/C=N/Nc2ccc(C(F)(F)F)cn2)cc1O
3. COc1ccccc1C(=O)NN1C(=O)C2C3C=CC(O3)C2C1=O (stereo not given)
4. COc1ccc(CNC(=O)C[C@H]2C[C@H](C(=O)N3CCOCC3)[C@@]3(CCC4CCCC4)c4[nH]c5ccc(Cl)cc5c4CCN3C2=O)cc1OC
5. COc1ccccc1C1CC(=O)n2c(nc(-c3ccccc3)c2-c2ccccc2)S1 (stereo not given)
6. CS(=O)(=O)c1ccc(-c2nnn(CC(=O)Nc3ccc4c(c3)OCCO4)n2)cc1
7. O=C(Cc1ccccc1)Nc1cccc(NC(=O)c2ccccc2)c1

Solution:
[3.39, -9.44, 14.8, 92.6, -21.8, 86.1, 4.35]

Please state, for each entry, its recorded inhibition.
1. COc1ccc(CCOC2OC(CO)C(OC(=O)/C=C/c3ccc(O)c(OC)c3)C(O[C@H]3O[C@@H](C)[C@H](O)[C@@H](O)[C@H]3O)C2O)cc1O (stereo not given in full)
2. COc1cc2[nH]c(=S)n(Cc3ccc(C)o3)c(=O)c2cc1OC
3. Cc1ccc2nc3c(cc(C(=O)NCCc4ccccc4)c(=N)n3CC3CCCO3)c(=O)n2c1 (stereo not given)

Solution:
1: -29.1; 2: 2.31; 3: 27.8

Respectfully, I request inhibition for each entry included below.
1. CCc1cccc(NC(=O)CCC(=O)O)c1
2. COc1cc(C)cc(CN2CCC(Cc3ccccc3)CC2)c1O
3. CC1(C)C[C@H]2C3=CCC4[C@@]5(C)CC[C@H](O)[C@](C)(CO)C5CC[C@@]4(C)[C@]3(C)C[C@@H](O)[C@@]2(CO)[C@@H](O)[C@@H]1O (stereo not given in full)
4. COC(=O)c1cc(OC)ccc1-c1ccc(OC)cc1
5. CCOC(=O)Cn1c2c(c(-c3ccccc3OC)cc1=O)CCCC2
6. COc1cc2[nH]c(=S)n(Cc3ccc(F)cc3)c(=O)c2cc1OC
7. CC(C)(C)OC(=O)C[C@@H]1C/C=C\C[C@@H](CC(=O)N[C@@H](CO)Cc2ccccc2)C(=O)N2CCC[C@H]2COC1=O
8. COc1ccc(-c2nn(-c3ccccc3)cc2/C=N/Nc2ccccn2)cc1OC

Solution:
[3.13, -29.4, 17.8, 21.1, -13.8, 81.3, 9.85, 34.3]

Please look at the items below and tell me inhibition for each one, in order.
1. C=CCn1c(CNS(=O)(=O)c2ccc(Br)cc2)nnc1SC
2. CCOc1cc2[nH]c(=S)n(Cc3ccc(C(=O)N4CCN(C)CC4)cc3)c(=O)c2cc1OCC
3. Cc1cccn2c(=O)c3cc(C#N)c(=O)n(CCCN4CCOCC4)c3nc12
4. O=S(=O)(Nc1nccs1)c1ccc2c(c1)OCCO2
5. COCc1c(C(=O)N/N=C(\C)c2ccncc2)nnn1-c1nonc1N
6. Cc1cccc(C(=O)Nc2ccccc2-c2nnn(CC(=O)Nc3ccc4c(c3)OCCO4)n2)c1

Solution:
[20.2, 91.7, 16, 12.5, -11.6, 15.2]
